Target: AuroraA-TPX2 (Homo sapiens)
Construct: 20 μL of AuroraA-TPX2 KD GST for a final volume of about 41 μL; GST
Sequence (O14965 133-383 limits assumed): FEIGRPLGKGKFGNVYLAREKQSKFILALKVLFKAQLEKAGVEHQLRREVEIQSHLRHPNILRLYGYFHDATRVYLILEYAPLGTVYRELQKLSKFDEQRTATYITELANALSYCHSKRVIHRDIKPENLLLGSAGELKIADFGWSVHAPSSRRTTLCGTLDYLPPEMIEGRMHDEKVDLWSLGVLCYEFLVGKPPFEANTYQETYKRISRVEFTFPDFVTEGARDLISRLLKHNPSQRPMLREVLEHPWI
Sequence (Q9ULW0 1-43 partner limits assumed): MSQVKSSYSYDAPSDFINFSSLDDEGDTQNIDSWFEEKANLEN
Assay: AuroraA-TPX2 Homogeneous Time Resolved Fluorescent (HTRF) kinase assay
Assay type: biochemical
Details: average; read-out: AurA_IC50_IP (uM Avg)
metricName: IC50 (µM)

A selection of reference data follows.
CCOc1nnc(Nc2ccc(Sc3ccnc4cc(OC)cnc34)cc2)c2ccccc12 : 0.501
CCOc1nc(-c2nnc(Nc3ccc(Oc4ccnc5cc(OC)cnc45)cc3)c3ccccc23)cs1 : 0.013
COc1cnc2c(Oc3ccc(Nc4nnc(-c5cccc(CO)n5)c5ccccc45)cc3)ccnc2c1 : 0.036
COc1cnc2c(Sc3ccc(Nc4nnc(-c5ccc(C)nc5)c5ccccc45)cc3)ccnc2c1 : 0.051
CCc1cc(-c2ccc(C)cc2)nnc1Nc1ccc(Sc2ccnc3cc(OC)cnc23)cc1 : 0.033

[I] COc1cnc2c(Oc3ccc(Nc4nnc(-c5ccc(C)c(OC)c5)c5ccccc45)cc3)ccnc2c1
[II] COc1cnc2c(Oc3ccc(Nc4nnc(-c5ccc(C(N)=O)cc5)c5ccccc45)cc3)ccnc2c1
[III] COc1cnc2c(Oc3ccc(Nc4nnc(-c5ccc(Cl)cc5)c5ccccc45)cc3)ccnc2c1
Please order the records by their reported IC50, lowest number first. Put the labels in the requested order and write them down.
III, I, II

* * *

Target: AuroraA-TPX2 (Homo sapiens)
Construct: 20 μL of AuroraA-TPX2 KD GST for a final volume of about 41 μL; GST
Experiment: AuroraA-TPX2 Homogeneous Time Resolved Fluorescent (HTRF) kinase assay
Assay type: biochemical
Details: average; read-out: AurA_IC50_IP (uM Avg)
metricName: IC50 (µM)

A selection of reference data follows.
COCCOCCOc1ccc2nccc(Sc3ccc(Nc4nnc(-c5ccc(Cl)cc5)c5ccccc45)cc3)c2c1 : 0.021
COCc1cccc(-c2nnc(Nc3ccc(Oc4ccnc5cc(OC)cnc45)cc3)c3ccccc23)n1 : 0.019
COc1cnc2c(Sc3ccc(Nc4nnc(N5CC(C)CC(C)C5)c5ccccc45)cc3)ccnc2c1 (stereo not drawn) : 0.116

[A] COc1cnc2c(Oc3ccc(Nc4nnc(-c5cnc6[nH]ccc6c5)c5ccccc45)cc3)ccnc2c1
[B] COc1ccc2nccc(Sc3ccc(Nc4nnc(N5CCCCC5)c5ccccc45)cc3)c2n1
[C] COc1cnc2c(Oc3ccc(Nc4nnc(-c5cc(Cl)cs5)c5ccccc45)cc3)ccnc2c1 [compound 298]
[D] Cc1ccc(-c2nnc(Nc3ccc(Oc4ccnc5cc(-c6cncn6C)sc45)cc3)c3ccccc23)nc1
[E] COc1cnc2c(Sc3ccc(Nc4nnc(-c5ccc6c(c5)OCO6)c5ccccc45)cc3F)ccnc2c1
Output the entries ranked by IC50 from maximum down to minimum. Put the labels in the requested order and write them down.
B, A, C, E, D
(B: 0.27 µM, A: 0.062 µM, C: 0.014 µM, E: 0.009 µM, D: 0.005 µM)

[1] COc1cnc2c(Oc3c(F)cc(Nc4nnc(-c5ccc(Cl)cc5)c5ccccc45)cc3F)ccnc2c1
[2] COc1cnc2c(Oc3ccc(Nc4nnc(-c5ccc6[nH]ccc6c5)c5ccccc45)cc3)ccnc2c1
[3] COc1cnc2c(Oc3ccc(Nc4nnc(-c5ccc(C(C)C)cc5)c5ccccc45)cc3)ccnc2c1
[4] COc1cc2ncnc(Oc3ccc(Nc4nnc(-c5cc(C)ccn5)c5ccccc45)cc3)c2cc1OC
Please order the records by their reported IC50, lowest number first. Put the labels in the requested order and write them down.
2, 3, 1, 4
(2: 0.013 µM, 3: 0.029 µM, 1: 0.05 µM, 4: 0.132 µM)

* * *

Molecular target: AuroraB (Homo sapiens, UniProt Q96GD4)
Construct: 20 μL of AuroraB FL H is for a final volume of 41 μL; His
Sequence (Q96GD4 whole entry): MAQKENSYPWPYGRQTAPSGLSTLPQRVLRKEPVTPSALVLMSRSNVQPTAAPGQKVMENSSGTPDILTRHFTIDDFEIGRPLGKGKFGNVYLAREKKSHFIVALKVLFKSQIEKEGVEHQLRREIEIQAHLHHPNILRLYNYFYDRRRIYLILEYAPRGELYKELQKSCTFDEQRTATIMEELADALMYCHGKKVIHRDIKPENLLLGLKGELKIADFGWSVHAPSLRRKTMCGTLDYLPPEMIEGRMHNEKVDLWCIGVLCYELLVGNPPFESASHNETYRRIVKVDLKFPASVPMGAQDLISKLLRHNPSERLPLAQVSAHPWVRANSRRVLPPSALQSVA
Experiment: AuroraB Homogeneous Time Resolved Fluorescent (HTRF) kinase assay
Assay type: biochemical
Conditions: average; read-out: AurB_IC50_IP (uM Avg)
metricName: IC50 (µM)

COc1ccc2nccc(Oc3ccc(Nc4nnc(-c5ccccc5)c5ccccc45)cc3)c2n1 [compound 347] : 0.01
COc1cnc2c(Oc3ccc(Nc4nnc(-c5cc6ccccc6o5)c5ccccc45)cc3)ccnc2c1 [compound 176] : 0.002
COc1cnc2c(Oc3ccc(Nc4nnc(-c5ccc(C(N)=O)cc5)c5ccccc45)cc3)ccnc2c1 [compound 177] : 0.004
c1ccc2c(-c3ccc4c(c3)CCO4)nnc(Nc3ccc(Oc4ccnc5ccsc45)cc3)c2c1 [compound 272] : 0.001
COCCOc1cc(-c2nnc(Nc3ccc(Sc4ccnc5cc(OC)cnc45)cc3)c3ccccc23)ccc1Cl [compound 450] : 0.054
COc1cc2nccc(Nc3ccc(Nc4nnc(-c5ccccc5)c5ccccc45)cc3)c2cn1 [compound 124] : 0.002

[I] CCc1cc(-c2ccc(C)cc2)nnc1Nc1ccc(Oc2ccnc3cc(OC)cnc23)cc1 [compound 199]
[II] COc1cnc2c(Oc3ccc(Nc4nnc(N5CCN6CCCC6C5)c5ccccc45)cc3)ccnc2c1 (stereo not shown) [compound 92]
[III] COc1cc2nccc(Oc3ccc(Nc4ncc(-c5ccccc5)c5ccccc45)cc3)c2cn1 [compound 145]
[IV] N#Cc1cc2nccc(Sc3ccc(Nc4nnc(-c5ccc(Cl)cn5)c5ccccc45)cc3)c2s1 [compound 460]
Please order the records by their reported IC50, lowest number first. Put the labels in the requested order and write them down.
I, II, IV, III
(I: 0.002 µM, II: 0.003 µM, IV: 0.015 µM, III: 0.096 µM)

* * *

Molecular target: AuroraA-TPX2 (Homo sapiens)
Construct: 20 μL of AuroraA-TPX2 KD GST for a final volume of about 41 μL; GST
Experiment: AuroraA-TPX2 Homogeneous Time Resolved Fluorescent (HTRF) kinase assay
Assay type: biochemical
Details: average; read-out: AurA_IC50_IP (uM Avg)
metricName: IC50 (µM)

COc1cnc2c(Oc3ccc(Nc4nnc(-c5ccccc5)cc4C)cc3)ccnc2c1 : 0.018
c1ccc(-c2nnc(Nc3ccc(Sc4ccnc5ccsc45)cc3)c3ccccc23)cc1 : 0.241
COCCOc1ccc(-c2nnc(Nc3ccc(Sc4ccnc5cc(OC)cnc45)cc3)c3ccccc23)cc1 : 0.051
NC(=O)c1cc2nccc(Oc3ccc(Nc4nnc(-c5ccccc5)c5ccccc45)cc3F)c2s1 : 0.022

[A] COc1cnc2c(Oc3ccc(Nc4nnc(N5CCCCC5)c5ccccc45)cc3)ccnc2c1
[B] Clc1ccc(-c2nnc(Nc3ccc(Sc4ccnc5ccoc45)cc3)c3ccccc23)cc1
Of the two listed items, A and B , which carries the larger IC50 figure? Answer = label.
B
(B: 0.093 µM, A: 0.022 µM)

[a] COc1cnc2c(Oc3ccc(Nc4nnc(-c5ccnn5C)c5ccccc45)cc3)ccnc2c1
[b] CCc1cc(-c2ccc(C)cc2)nnc1Nc1ccc(Oc2ccnc3cc(OC)cnc23)cc1 [compound 307]
Of the two listed items, a and b , which carries the larger IC50 figure? Answer = label.
a
(a: 1.33 µM, b: 0.022 µM)

[P] FC(F)(F)Oc1ccc2c(Oc3ccc(Nc4nnc(-c5ccc(Cl)cc5)c5ccccc45)cc3)ccnc2c1
[Q] COc1ccc2c(Oc3ccc(Nc4nnc(-c5ccccc5)c5c4CCC5)cc3)ccnc2c1
[R] COc1cnc2c(Sc3ccc(Nc4nnc(N5CCC(N6CCCC6)CC5)c5ccccc45)cc3)ccnc2c1
Please order the records by their reported IC50, lowest number first. Put the labels in the requested order and write them down.
Q, P, R
(Q: 0.04 µM, P: 0.183 µM, R: 3.43 µM)

* * *

Target: AuroraA-TPX2 (Homo sapiens)
Construct: 20 μL of AuroraA-TPX2 KD GST for a final volume of about 41 μL; GST
Experiment: AuroraA-TPX2 Homogeneous Time Resolved Fluorescent (HTRF) kinase assay
Type: biochemical
Settings: average; read-out: AurA_IC50_IP (uM Avg)
metricName: IC50 (µM)

A selection of reference data follows.
N#Cc1ccc2nccc(Oc3ccc(Nc4nnc(-c5ccccc5)c5ccccc45)cc3)c2c1 : 0.338
COc1cc2nccc(Oc3ccc(Nc4nnc(-c5cccc(OC)n5)c5ccccc45)cc3)c2cn1 : 0.019
FC(F)Oc1cnc2c(Sc3ccc(Nc4nnc(-c5ccccc5)c5ccccc45)cc3)ccnc2c1 : 0.135

[I] COc1cnc2c(Oc3ccc(Nc4nnc(C#CC(C)(C)C)c5ccccc45)cc3)ccnc2c1
[II] CCc1cc(-c2ccccc2OC)nnc1Nc1ccc(Sc2ccnc3cc(OC)cnc23)cc1
[III] COc1cnc2c(Oc3ccc(Nc4nnc(-c5cc(CO)cs5)c5ccccc45)cc3)ccnc2c1
[IV] Cc1cccc(-c2nnc(Nc3ccc(Sc4ccnc5ccoc45)cc3)c3ccccc23)n1
Output the entries ranked by IC50 from maximum down to minimum. Put the labels in the requested order and write them down.
IV, II, I, III
(IV: 1.29 µM, II: 0.123 µM, I: 0.033 µM, III: 0.016 µM)
